# TEST NAME: in vitro
# MEASUREMENT SETUP: human, hek293t cells
Kindly apply the following: criterion met if viability at 48 h, 25 µM is less than 60%, criterion not met in every other case.

Recorded results for 3 molecules are shown here.
                                   molecule        group_label
0  C=CC(=O)Nc1ccc(C(=O)N2C[C@H](O)C[C@H]2C(=O)OC)cc1 [2-O21]  criterion not met
1         O=C1C=CC(=O)N1CCc1ccccc1 [10-E20]      criterion met
2  N#CC(=Cc1ccccc1)C(=O)Nc1ccc(N2CCCCC2)cc1 [8-E15]  criterion not met

Input Cc1ccc(NC(=O)CCl)cc1S(=O)(=O)N(C)C [4-A09] ; condition: viability at 48 h, 25 µM strictly below 60%. Does it hold? criterion met

Strictly below 60%: is that where viability at 48 h, 25 µM of CC(Cl)C(=O)NC1CCc2ccccc2-n2ccnc21 (centres unmarked) [7-E06] sits? criterion not met

Is 60% strictly greater than the molecule's reported viability at 48 h, 25 µM? molecule: O=C(NC1CC1)C1(C(=O)N2CCSSCC2)CCC1 [10-B21] criterion not met

Does the reported viability at 48 h, 25 µM of N#Cc1cccc(NC2CCN(C(=O)CCl)C2)c1 (centres unmarked) [5-I22] stay below 60%? criterion met

State whether 60% exceeds viability at 48 h, 25 µM recorded for CC(Cl)C(=O)NC(c1cccs1)c1cccs1 (centres unmarked) [6-L21] . criterion not met

In plain terms, does O=C(CCl)c1c(-c2ccccc2)[nH]c2ccccc12 [10-E05] come in under 60% for viability at 48 h, 25 µM? criterion met

Does the reported viability at 48 h, 25 µM of the following molecule sit strictly below 60%? C=CC(=O)N(C)CC(=O)N1CCC(C)(c2nc(C)no2)CC1 [2-B22] criterion met

Field: below-cutoff. Rule: recorded viability at 48 h, 25 µM strictly less than 60%. Subject: C=CC(=O)NCC(CC)n1nc(C)cc1C (centres unmarked) [1-K21] criterion not met
